assay: parental Ba/F3 cell viability inhibition, counter-screen for JAK2V617F inhibitor project, murine pro-B, CellTiter-Glo luminescence (AID 1486); conditions: CellTiter-Glo ATP luminescence, at 5.6 µM
Among all 220,000 compounds or so, about 2,400 (1.1%) were called active.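 How the source made its calls: active means inhibition above a per-campaign cutoff, the mean inhibition of all tested compounds plus 3 SD (cut at about 27% in these data); inactive means the rest.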 This excerpt belongs to a sample that is enriched for actives.
Classes used: active, inactive

{"columns": ["compound", "classification"],
 "data": [
  ["CCOC(=O)C1CCN(C(=O)/C=C/c2cc(OC)c(OC)c(OC)c2)CC1", "inactive"],
  ["CCCCCc1ccc(-c2ccc(OCC)cc2)nc1", "inactive"],
  ["COC(=O)COc1cccc2c(=O)n(CC(=O)NCCc3ccc(OC)c(OC)c3)ccc12", "inactive"],
  ["Cc1ccc(Oc2ccc(N)cc2)cc1", "inactive"],
  ["O=S(=O)(c1ccc(Br)cc1)n1ccc2ccccc21", "active"],
  ["O=C(O)CC1=C(Nc2ccccc2)C(=O)N(c2ccccc2)C1c1ccc(Cl)cc1 (stereo unspecified)", "inactive"],
  ["CCOc1ccc(-c2n[nH]c(C)c2-c2ccccn2)c(O)c1", "inactive"],
  ["CC(C)(C)c1ccc(Oc2ccc(N)cc2)cc1", "active"],
  ["Oc1c(C(c2ccccn2)N2CCOCC2)ccc2cccnc12 (stereo unspecified)", "inactive"],
  ["COC(=O)COc1cccc2c(=O)n(CC(=O)NCc3ccccc3)ccc12", "active"],
  ["O=C(COC(=O)CCCNC(=O)c1ccc(Cl)cc1)Nc1cc(Cl)ccc1Cl", "inactive"],
  ["CCCCN(C)c1ccc([N+](=O)[O-])cc1", "inactive"],
  ["C/C(=N\\NC(=O)c1cccnc1)c1ccc(-n2ccnc2)cc1", "inactive"],
  ["CCOC(=O)C1=C(N)N2C(=O)C(C)SC2=C(C(=O)OCC)C1c1cc(OC)c(OC)c(OC)c1 (stereo unspecified)", "active"],
  ["CC(=O)c1cc(-c2ccccc2)n(CCC(=O)NC2CCCCCC2)c1C", "inactive"],
  ["O=c1[nH]cnc2c1c(-c1ccccc1)cn2-c1ccc(F)cc1", "inactive"],
  ["CC(O)C(NS(=O)(=O)c1ccc(Cl)cc1)C(=O)OCc1cc([N+](=O)[O-])cc2c1OCOC2 (stereo unspecified)", "inactive"],
  ["COc1ccc(-c2csc(-c3cccs3)n2)cc1OC", "inactive"],
  ["Cc1ccc2cc(/C=N/NC(=O)[C@@H]3CCCN3)c(Cl)nc2c1", "inactive"],
  ["O=C(CSc1nnc(-c2c[nH]c3ccccc23)n1-c1ccc(F)cc1)NCc1ccco1", "active"],
  ["Brc1ccc(-c2nn[nH]n2)cc1", "inactive"],
  ["CCc1ccc(NC(=O)N2CCN(c3ccccc3)CC2)cc1", "inactive"],
  ["CCOC(=O)N1CCN(S(=O)(=O)c2ccc(C(=O)Nc3ccc(F)cc3F)cc2)CC1", "active"],
  ["COc1cc(OC)cc(C(=O)N[C@H](C(=O)Nc2nc3ccccc3[nH]2)C(C)C)c1", "inactive"],
  ["Cc1cc(NCc2cccnc2)no1", "inactive"],
  ["CC(C)(C)c1nnc(NC(=O)C2c3ccccc3Oc3ccccc32)s1", "inactive"],
  ["Cc1cc(Cl)ccc1C(=O)C1CCCN(C(=O)CCN2CCCO2)C1 (stereo unspecified)", "inactive"],
  ["N#C/C(=C\\c1ccc(N2CCOCC2)o1)C(=O)N1CCOCC1", "inactive"],
  ["CCN1CCN(C(c2cccnc2)c2cc(Cl)c3cccnc3c2O)CC1 (stereo unspecified)", "inactive"],
  ["COc1ccc(Nc2cc(=O)oc3ccccc23)cc1", "active"],
  ["CCCCNS(=O)(=O)c1ccc(S(=O)(=O)n2cnc3ccccc32)cc1", "inactive"],
  ["CCOc1ccc(OCc2cccc(C(=O)N(CC)CC)c2)cc1", "inactive"],
  ["COc1ccc(NS(=O)(=O)c2ccc(NC(=O)c3ccc(N(C)S(C)(=O)=O)cc3)cc2)cc1", "inactive"],
  ["Nc1ccc(Oc2ccc(Cl)cc2)cc1", "inactive"],
  ["CCOc1ccc(-c2nc(N)ncc2-c2ccccc2OC)c(O)c1", "inactive"],
  ["COc1ccc(N2CCN(Cc3cc(=O)oc4ccc5ccccc5c34)CC2)cc1", "inactive"],
  ["CC(=O)Nc1nc(N(C)C)nc(N(C)C)n1", "inactive"],
  ["CC#CC[N+](C)(C)CCCCCC", "active"],
  ["O=C(NCC1CCCCC1)c1cc(S(=O)(=O)N2CCCCC2)ccc1N1CCOCC1", "inactive"],
  ["CC[n+]1c(C)n(-c2ccccc2)c2ccc(NC(C)=O)cc21", "active"],
  ["Cc1noc(C)c1COc1cccc(C(=O)Nc2cccnc2)c1", "inactive"],
  ["CCOC(=O)c1cc(-c2nnc(-c3cc(OC)c(OC)c(OC)c3)o2)c(C)nc1C", "inactive"],
  ["COc1ccc(-n2c(SCC(=O)NCc3ccco3)nnc2-c2c[nH]c3ccccc23)cc1", "inactive"],
  ["Brc1ccc2ncnc(NCc3cccnc3)c2c1", "inactive"],
  ["CN(Cc1cccnc1)C(=O)c1cc(COc2ccc3ncccc3c2)on1", "active"],
  ["CC1=CC(C)(C)NC(=S)N1NC(=O)c1ccccc1Cl", "inactive"]
]}
